ASSAYED_TARGET: AKT2 (Homo sapiens)
Construct: expressed in transfected cells; host or cells: HEK293
Sequence (P31751 whole entry): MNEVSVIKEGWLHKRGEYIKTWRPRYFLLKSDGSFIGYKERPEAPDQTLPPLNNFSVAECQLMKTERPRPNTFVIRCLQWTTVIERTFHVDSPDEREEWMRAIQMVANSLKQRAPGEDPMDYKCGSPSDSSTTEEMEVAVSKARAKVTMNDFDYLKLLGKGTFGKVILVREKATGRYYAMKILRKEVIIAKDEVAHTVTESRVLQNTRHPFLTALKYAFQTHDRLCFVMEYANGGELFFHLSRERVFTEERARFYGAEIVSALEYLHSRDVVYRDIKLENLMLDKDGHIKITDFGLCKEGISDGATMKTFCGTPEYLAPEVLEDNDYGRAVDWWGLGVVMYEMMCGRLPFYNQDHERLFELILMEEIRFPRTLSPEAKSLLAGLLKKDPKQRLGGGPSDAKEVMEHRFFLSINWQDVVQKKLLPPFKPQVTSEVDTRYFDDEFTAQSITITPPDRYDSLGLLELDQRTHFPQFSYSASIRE
MEASUREMENT_PROTOCOL: Live cell AKT2 target engagement by NanoBRET competitive probe displacement in HEK293 cells
Assay type: binding
STATED_CONDITIONS: NanoBRET competitive probe displacement, live HEK293 cells, 2 h at 37° C.; read-out: AKT2 IC50
Description: Determining live cell AKT1 E17K, AKT1 WT, and AKT2 target engagement by NanoBRET competitive probe displacement. […] Briefly, HEK293 cells were transfected with plasmids encoding kinase-NanoLuciferase fusion proteins overnight. […] After incubation for 2 h at 37° C., luciferase substrate and extracellular luciferase inhibitor were added to all wells, and luminescent intensity at 460 nm and 600 nm were measured on a multimode plate-reader. […]
We label by threshold. Values of IC50 strictly beneath 1000 nM are yes (1). Values of 1000 nM and up are no (0).

Does the reported IC50 of the following compound sit strictly below 1000 nM? "Nc1ncccc1-c1nc2ccc(-n3ccc(C4CC4)n3)nc2n1-c1ccc2c(c1)CC[C@@H]2NC1CCN(C(=O)C2CC2)CC1"
no (0)

Bench note: check whether COc1nccc2c1CCC2N[C@H]1CCc2cc(-n3c(-c4cccnc4N)nc4ccc(-n5cccn5)nc43)ccc21 (stereo partly shown) [Compound 508] shows IC50 below 1000 nM
yes (1)

In the record for "Cn1nc(F)cc1C(=O)N[C@H]1CCc2cc(-n3c(-c4cccnc4N)nc4ccc(-n5cccn5)nc43)ccc21" , is IC50 less than 1000 nM?
yes (1)

Hi there! Is IC50 for "Cc1ccc(C(=O)N[C@H]2CCc3cc(-n4c(-c5ccccc5F)nc5ccc(-n6cccn6)nc54)ccc32)cn1" below 1000 nM, do you know?
no (0)

Is IC50 strictly under 1000 nM for the entry "Nc1ncccc1-c1nc2ccc(-c3cnccn3)nc2n1-c1ccc2c(c1)CC[C@@H]2NC1CCN(C(=O)C2CC2)CC1" ?
no (0)

Item "COCCOc1ccn(-c2ccc3nc(-c4cccnc4N)n(-c4ccc5c(c4)CC[C@@H]5NC4CCN(C(=O)C5CC5)CC4)c3n2)n1" : IC50 beneath 1000 nM, strictly?
yes (1)

Strictly below 1000 nM in IC50? "COCCN(C)[C@H]1CCc2cc(-n3c(-c4cccnc4N)nc4ccc(-n5cccn5)nc43)ccc21"
no (0)

Determine whether this compound shows IC50 lower than 1000 nM (ties excluded): "Nc1ncccc1-c1nc2ccc(-n3ccc(OC(F)F)n3)nc2n1-c1ccc2c(c1)CC[C@@H]2NC1CCN(C(=O)C2CC2)CC1"
no (0)

Check if IC50 falls below 1000 nM for "C#Cc1ccc2nc(-c3cccnc3N)n(-c3ccc4c(c3)CC[C@@H]4NC(=O)c3ccc(C(F)F)nc3)c2n1" .
no (0)

Given the entry "Nc1ncccc1-c1nc2ccc(-n3ccc(OC4COC4)n3)nc2n1-c1ccc2c(c1)CC[C@@H]2NC1CCN(C(=O)C2CC2)CC1" , would its reported IC50 be below 1000 nM?
yes (1)

State whether 1000 nM exceeds IC50 recorded for "Cc1ccc(C(=O)N[C@H]2CCc3cc(-n4c(-c5ccccc5)nc5ccc(-n6cccn6)nc54)ccc32)cn1" .
no (0)

Determine if "Nc1ncccc1-c1nc2ccc(C#CC3CC3)nc2n1-c1ccc2c(c1)CC[C@@H]2NC(=O)c1ccc(F)c(F)c1" shows IC50 strictly lower than 1000 nM.
yes (1)

Does this compound meet the criterion IC50 < 1000 nM? Nc1ncccc1-c1nc2ccc(-n3nccn3)nc2n1-c1ccc2c(c1)CC(F)[C@@H]2NC1CCN(C(=O)C2CC2)CC1 (stereo partly shown) [Compound 532]
no (0)
